System: HCV 1b-BB7 subgenomic replicon
ASSAY_TEXT: microbe, parasite or virus in culture
Format: cell-based, HCV genotype 1b
REPORTED_CONDITIONS: Hepatitis C virus, stable replicon, strain 1b BB7, 5% FBS, no human plasma; read-out: 1b BB7 5% FBS EC50
pEC50: −log10 of the molar value.
PROPERTY_NAME: pEC50

>>> print(df.to_string())
                                    molecule  property_name  numeric_value
 0  CCCCCCN(c1cc2oc(-c3ccc(F)cc3)c(-c3ncc[nH]3)c2cc1C1CC1)S(C)(=O)=O          pEC50           7.41
 1  CS(=O)(=O)N(Cc1cnc(-c2ccc3nc[nH]c3c2)s1)c1ccc2c(-c3ncc[nH]3)c(-c3ccccc3)oc2c1          pEC50           8.30
 2  CN(C)CCCN(c1cc2oc(-c3ccc(F)cc3)c(-c3ncc[nH]3)c2cc1C1CC1)S(C)(=O)=O          pEC50           7.95
 3  CS(=O)(=O)N(CCCS(N)(=O)=O)c1cc2oc(-c3ccc(F)cc3)c(-c3ncc[nH]3)c2cc1C1CC1          pEC50           7.97
 4  CS(=O)(=O)N(Cc1cnc(-c2ccc3[nH]ccc3c2)s1)c1cc2oc(-c3ccc(F)cc3)c(-c3ncc[nH]3)c2cc1C1CC1          pEC50           7.55
 5  CS(=O)(=O)N(CC(O)CO)c1cc2oc(-c3ccc(F)cc3)c(-c3ncc[nH]3)c2cc1C1CC1 (centres unmarked)          pEC50           7.20
 6  CS(=O)(=O)N(Cc1cccc(C(F)(F)F)c1)c1ccc2c(-c3ncc[nH]3)c(-c3ccccc3)oc2c1          pEC50           6.22
 7  COc1ccc(CN(c2cc3oc(-c4ccc(F)cc4)c(C4=NOC(C)N4)c3cc2C2CC2)S(C)(=O)=O)cc1 (centres unmarked)          pEC50           7.52
 8  CC(C)CCN(c1cc2oc(-c3ccc(F)cc3)c(C3=NOC(C)N3)c2cc1C1CC1)S(C)(=O)=O (centres unmarked)          pEC50           7.03
 9  CS(=O)(=O)N(CCCC(F)(F)F)c1cc2oc(-c3ccc(F)cc3)c(C3=NOCCN3)c2cc1C1CC1          pEC50           7.52
10  CS(=O)(=O)N(CCCN1CCS(=O)(=O)CC1)c1cc2oc(-c3ccc(F)cc3)c(C3=NOCCN3)c2cc1C1CC1          pEC50           7.48
11  CS(=O)(=O)N(CCCC(=O)N1CCCCC1)c1cc2oc(-c3ccc(F)cc3)c(-c3ncc[nH]3)c2cc1C1CC1          pEC50           7.88
12  C[S+]([O-])c1ccc(-c2ncc(CN(c3ccc4c(-c5ncc[nH]5)c(-c5ccccc5)oc4c3)S(C)(=O)=O)s2)cc1 (centres unmarked)          pEC50           7.91
13  CC(O)CCCN(c1cc2oc(-c3ccc(F)cc3)c(-c3ncc[nH]3)c2cc1C1CC1)S(C)(=O)=O (centres unmarked)          pEC50           8.47
